- Assay details: chemical genetic growth profiling, strain panel (AID 1159580);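 further: tested at 20 µM; growth read once vehicle control cultures reached saturation at 30 °C; 1 = growth at the plate median or of vehicle wells; lower values mean less growth of the strain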
- Experimental setup: S. cerevisiae deletion strains, growth OD, locus YML016C, strain PPZ1, stronger effect = lower value
The whole screen tested about 5,500 compounds, of which about 2,000 (36%) were called active. Another 18% or so got no clear call; they are omitted. The list shows a part of the results.
Assay endpoint: normalized growth

* CC1(C)CCC[C@@]2(C)C1[C@@H](O)C[C@]1(C)C2CC[C@@H]2[C@@]3(C)CC[C@H](C(C)(C)O)[C@@H]3CC[C@@]21C (stereo not given in full) | 0.995
* CNCCC(Oc1ccc(C(F)(F)F)cc1)c1ccccc1 (stereo not given) | 1.02
* C=C[C@@](C)(O)CCC1C(=C)C[C@H](OC(C)=O)C2C(C)(C)CCCC12C (stereo not given in full) | 0.999
* C=CCc1ccc(OC(=O)c2ccccc2)c(OC)c1 | 1
* NCCCS(=O)(=O)O | 0.984
* COc1ccc(C(=O)CC(=O)O)c2c1C=CC(C)(C)O2 | 0.99
* COc1cc([C@@H]2c3cc4c(cc3C(OC3O[C@@H]5COC(C)O[C@H]5[C@H](O)[C@H]3O)C3COC(=O)[C@@H]32)OCO4)cc(OC)c1O (stereo not given in full) | 0.999
* COc1ccc(C(=O)O)cc1OC | 1
* C#CCN(C)Cc1ccccc1 | 1
* C=C1CCC2[C@](C)(CO)[C@H](O)CC[C@@]2(C)[C@@H]1C/C=C1/C(=O)OC[C@H]1O (stereo not given in full) | 1.01
